Reported MIC values, Escherichia coli ATCC 25922.
Answers are plain numbers, in µg/mL.

# count of solved cases: 4
INSERT INTO assay_data (compound, readout, recordednumber) VALUES
  ('Cc1c(N)nc(SCC2=C(C(=O)[O-])N3C(=O)C(NC(=O)/C(=N\O[C@H](C)C(=O)O)c4csc(N)n4)[C@H]3SC2)[n+](N)c1N (some centres unmarked)', 'MIC', 0.063),
  ('C[C@@H](O/N=C(\C(=O)NC1C(=O)N2C(C(=O)[O-])=C(CSc3nc(N)cc(N)[n+]3N)CS[C@H]12)c1csc(N)n1)C(=O)O (some centres unmarked)', 'MIC', 0.031),
  ('Cc1c(N)nc(SCC2=C(C(=O)[O-])N3C(=O)C(NC(=O)/C(=N\O[C@@H](C)C(=O)O)c4csc(N)n4)[C@H]3SC2)[n+](N)c1N (some centres unmarked)', 'MIC', 0.016),
  ('Cc1c(N)nc(SCC2=C(C(=O)[O-])N3C(=O)C(NC(=O)/C(=N\O[C@H](C)C(=O)O)c4csc(N)n4)[C@H]3SC2)[n+](C)c1N (some centres unmarked)', 'MIC', 0.13);

Now take the following compound into account.
MIC for C[C@H](O/N=C(\C(=O)NC1C(=O)N2C(C(=O)[O-])=C(CSc3nc(N)cc(N)[n+]3N)CS[C@H]12)c1csc(N)n1)C(=O)O (some centres unmarked) is 0.031

====

Reported MIC values, Escherichia coli ATCC 25922.
Give bare numbers, in µg/mL.

# count of solved cases: 2
INSERT INTO results (compound, testtarget, recordednumber) VALUES
  ('CCC[n+]1c(N)cc(N)nc1SCC1=C(C(=O)[O-])N2C(=O)C(NC(=O)/C(=N\O[C@H](C)C(=O)O)c3csc(N)n3)[C@H]2SC1 (stereo partly drawn) [I-R-4]', 'Escherichia coli ATCC 25922', 0.063),
  ('CC[n+]1c(N)cc(N)nc1SCC1=C(C(=O)[O-])N2C(=O)C(NC(=O)/C(=N\O[C@H](C)C(=O)O)c3csc(N)n3)[C@H]2SC1 (stereo partly drawn) [I-R-3]', 'Escherichia coli ATCC 25922', 0.063);

MIC for CC[n+]1c(N)cc(N)nc1SCC1=C(C(=O)[O-])N2C(=O)C(NC(=O)/C(=N\O[C@@H](C)C(=O)O)c3csc(N)n3)[C@H]2SC1 (stereo partly drawn) [I-S-3] is 0.031

====

Reported MIC values, Proteus mirabilis ATCC 25933.
Give bare numbers, in mg/L.

# count of solved cases: 5
INSERT INTO results (compound, recordednumber) VALUES
  ('CC[n+]1c(N)cc(N)nc1SCC1=C(C(=O)[O-])N2C(=O)C(NC(=O)/C(=N\O[C@H](C)C(=O)O)c3csc(N)n3)[C@H]2SC1 (stereo partly drawn)', 0.031),
  ('CCC[n+]1c(N)cc(N)nc1SCC1=C(C(=O)[O-])N2C(=O)C(NC(=O)/C(=N\O[C@H](C)C(=O)O)c3csc(N)n3)[C@H]2SC1 (stereo partly drawn)', 0.063),
  ('Cc1c(N)nc(SCC2=C(C(=O)[O-])N3C(=O)C(NC(=O)/C(=N\O[C@H](C)C(=O)O)c4csc(N)n4)[C@H]3SC2)[n+](C)c1N (stereo partly drawn)', 0.031),
  ('C[C@@H](O/N=C(\C(=O)NC1C(=O)N2C(C(=O)[O-])=C(CSc3nc(N)cc(N)[n+]3C)CS[C@H]12)c1csc(N)n1)C(=O)O (stereo partly drawn)', 0.031),
  ('CCC[n+]1c(N)cc(N)nc1SCC1=C(C(=O)[O-])N2C(=O)C(NC(=O)/C(=N\O[C@@H](C)C(=O)O)c3csc(N)n3)[C@H]2SC1 (stereo partly drawn)', 0.031);

MIC for Proteus mirabilis ATCC 25933 with input C[C@@H](O/N=C(\C(=O)NC1C(=O)N2C(C(=O)[O-])=C(CSc3nc(N)cc(N)[n+]3-c3ccccc3)CSC12)c1csc(N)n1)C(=O)O (stereo partly drawn) equals 0.063
